// provenance: ChEMBL document CHEMBL3886358

molecular target: Vascular endothelial growth factor receptor 2 (Homo sapiens); assay: Sci. USA 1988, 85(23), 9312). Specific steps were as follows: The compound of the present invention was dissolved in dimethyl sulfoxide (DMSO) to make a stock solution of 2 mM, then the stock solution was diluted with DMSO following a 7 half-log series to concentrations ranging from 2 uM to 600 pM.
OBSERVED PROPERTY: pIC50
Formally, pIC50 is defined as -log10 of the concentration c, with c in mol/L.

**Q:** Name the recorded pIC50 of the compound listed here: COc1cc2c(Oc3ccc(NC(=O)C4(C(=O)Nc5ccc(F)cc5)CC4)cc3F)ccnc2cc1OCCCC(=O)NO
**A:** 7.92

---

Listing of recorded IC50 by entry.
target: Protein deacetylase HDAC6 (Homo sapiens, UniProt Q9UBN7); assay: Inhibition Assay: The inhibitions of activities of HDAC enzymes by the compounds N1'-[3-fluoro-4-[[7-[4-(hydroxyamino)-4-oxobutoxy]-6-methoxy-4-quinolyl]oxy]phenyl]-N1-(4-fluoro phenyl)cyclopropane-1,1-dicarboxamide prepared in Example 9 and N1'-[3-fluoro-4-[[7-[6-(hydroxyamino)-6-oxohexyloxy]-6-methoxy-4-quinolyl]oxy]phenyl]-N1-(4-fluo rophenyl)cyclopropane-1,1-dicarboxamide prepared in Example 13 were measured by Reaction Biology Corporation (Reaction Biology Corp., One Great Valley Parkway, Suite 2, Malvern, PA 19355, USA . http://www.reactionbiology.com/pages/hdac.htm). The HDAC enzymes tested include the following 11 HDAC isoforms: HDAC1, HDAC2, HDAC3, HDAC4, HDAC5, HDAC6, HDAC7, HDAC8, HDAC9, HDAC10 and HDAC11.Specific steps were as follows: The compound of the present invention was dissolved in dimethyl sulfoxide (DMSO) to make a stock solution of 10 mM. The stock solution was diluted in 4-fold series starting from 10 mM to prepare 10 different dosages.
Sequence (Q9UBN7 whole entry, canonical isoform): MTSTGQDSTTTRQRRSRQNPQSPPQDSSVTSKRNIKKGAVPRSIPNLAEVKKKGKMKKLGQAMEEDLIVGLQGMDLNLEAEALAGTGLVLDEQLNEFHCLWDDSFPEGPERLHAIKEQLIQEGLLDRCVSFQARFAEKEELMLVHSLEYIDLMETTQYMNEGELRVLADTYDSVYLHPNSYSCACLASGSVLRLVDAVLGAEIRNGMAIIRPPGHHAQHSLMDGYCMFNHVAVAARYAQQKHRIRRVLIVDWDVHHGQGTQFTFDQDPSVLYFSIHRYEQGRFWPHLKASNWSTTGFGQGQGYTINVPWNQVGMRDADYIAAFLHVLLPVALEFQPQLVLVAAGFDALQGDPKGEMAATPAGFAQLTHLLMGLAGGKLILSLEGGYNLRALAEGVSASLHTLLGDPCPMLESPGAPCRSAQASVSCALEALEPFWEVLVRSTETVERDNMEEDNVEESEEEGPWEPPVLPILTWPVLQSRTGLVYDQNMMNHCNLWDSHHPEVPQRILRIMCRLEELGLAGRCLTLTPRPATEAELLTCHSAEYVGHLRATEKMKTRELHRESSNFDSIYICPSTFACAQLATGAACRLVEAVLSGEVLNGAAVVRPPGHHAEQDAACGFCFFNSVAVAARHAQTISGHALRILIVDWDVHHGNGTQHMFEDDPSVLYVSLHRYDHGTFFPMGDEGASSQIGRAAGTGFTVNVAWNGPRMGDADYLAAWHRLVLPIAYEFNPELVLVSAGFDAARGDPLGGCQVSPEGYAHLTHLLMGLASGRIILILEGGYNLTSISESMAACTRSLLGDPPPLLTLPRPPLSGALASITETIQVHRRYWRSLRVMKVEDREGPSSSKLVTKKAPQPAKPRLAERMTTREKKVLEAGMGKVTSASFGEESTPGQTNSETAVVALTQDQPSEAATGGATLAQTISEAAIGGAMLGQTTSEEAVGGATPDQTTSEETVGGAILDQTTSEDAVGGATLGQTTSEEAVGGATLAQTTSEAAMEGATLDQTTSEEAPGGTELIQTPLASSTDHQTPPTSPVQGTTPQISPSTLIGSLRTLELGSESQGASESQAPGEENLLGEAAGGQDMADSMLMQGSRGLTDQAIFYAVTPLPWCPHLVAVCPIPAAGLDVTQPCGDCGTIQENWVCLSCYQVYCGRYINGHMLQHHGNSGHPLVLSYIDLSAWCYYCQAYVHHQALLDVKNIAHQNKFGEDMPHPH
Report only the number, with the unit nM understood.

COc1cc2c(Oc3ccc(NC(=O)C4(C(=O)Nc5ccc(F)cc5)CC4)cc3F)ccnc2cc1OCCCC(=O)NO    242

Please examine the following record next.
**Q:** Name the recorded IC50 of the compound listed here: COc1cc2c(Oc3ccc(NC(=O)C4(C(=O)Nc5ccc(F)cc5)CC4)cc3F)ccnc2cc1OCCCCCC(=O)NO
**A:** 8.3

---

target: UniProtKB Q9UM73; assay: Sci. USA 1988, 85(23), 9312). Specific steps were as follows: The compound of the present invention was dissolved in dimethyl sulfoxide (DMSO) to make a stock solution of 2 mM, then the stock solution was diluted with DMSO following a 7 half-log series to concentrations ranging from 2 uM to 600 pM.
Sequence (Q9UM73 whole entry): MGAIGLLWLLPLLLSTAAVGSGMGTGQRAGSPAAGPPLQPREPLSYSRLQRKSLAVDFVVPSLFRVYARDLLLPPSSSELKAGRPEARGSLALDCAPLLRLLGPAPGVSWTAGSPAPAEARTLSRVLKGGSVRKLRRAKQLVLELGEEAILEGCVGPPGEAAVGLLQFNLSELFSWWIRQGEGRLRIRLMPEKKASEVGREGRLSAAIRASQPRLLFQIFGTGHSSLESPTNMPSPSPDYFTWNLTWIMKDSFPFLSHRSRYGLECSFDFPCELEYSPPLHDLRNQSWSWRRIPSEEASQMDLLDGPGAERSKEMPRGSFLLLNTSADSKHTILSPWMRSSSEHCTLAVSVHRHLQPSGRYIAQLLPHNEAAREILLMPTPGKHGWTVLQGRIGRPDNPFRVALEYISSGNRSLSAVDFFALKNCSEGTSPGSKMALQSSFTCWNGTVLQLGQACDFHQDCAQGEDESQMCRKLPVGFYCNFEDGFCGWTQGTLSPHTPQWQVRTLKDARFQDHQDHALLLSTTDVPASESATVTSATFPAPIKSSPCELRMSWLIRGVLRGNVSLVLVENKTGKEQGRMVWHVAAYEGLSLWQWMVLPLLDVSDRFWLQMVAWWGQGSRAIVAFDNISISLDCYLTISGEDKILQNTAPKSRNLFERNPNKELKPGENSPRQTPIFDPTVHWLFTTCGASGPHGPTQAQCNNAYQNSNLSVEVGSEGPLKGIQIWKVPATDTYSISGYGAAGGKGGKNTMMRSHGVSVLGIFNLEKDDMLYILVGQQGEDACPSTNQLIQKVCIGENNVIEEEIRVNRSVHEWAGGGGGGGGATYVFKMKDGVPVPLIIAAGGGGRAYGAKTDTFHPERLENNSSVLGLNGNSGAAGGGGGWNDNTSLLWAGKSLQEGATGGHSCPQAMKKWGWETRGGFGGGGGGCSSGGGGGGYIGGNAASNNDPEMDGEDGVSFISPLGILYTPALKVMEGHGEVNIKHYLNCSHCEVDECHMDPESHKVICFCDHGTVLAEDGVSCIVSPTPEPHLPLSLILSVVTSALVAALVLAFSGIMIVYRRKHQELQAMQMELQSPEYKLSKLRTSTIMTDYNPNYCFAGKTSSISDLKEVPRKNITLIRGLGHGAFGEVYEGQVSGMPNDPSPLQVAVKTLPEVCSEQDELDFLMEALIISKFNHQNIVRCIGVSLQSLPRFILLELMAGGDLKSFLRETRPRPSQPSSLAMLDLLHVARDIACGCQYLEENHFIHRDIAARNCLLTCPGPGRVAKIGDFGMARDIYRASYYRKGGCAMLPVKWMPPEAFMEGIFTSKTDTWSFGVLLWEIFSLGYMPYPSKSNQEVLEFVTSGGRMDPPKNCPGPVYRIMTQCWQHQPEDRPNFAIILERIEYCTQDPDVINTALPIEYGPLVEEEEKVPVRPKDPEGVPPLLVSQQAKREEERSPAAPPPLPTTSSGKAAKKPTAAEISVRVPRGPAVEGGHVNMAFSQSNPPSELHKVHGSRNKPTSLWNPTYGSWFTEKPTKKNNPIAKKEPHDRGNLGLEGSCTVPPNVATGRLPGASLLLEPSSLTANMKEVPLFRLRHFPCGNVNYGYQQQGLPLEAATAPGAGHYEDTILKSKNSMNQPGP
OBSERVED PROPERTY: IC50

**Q:** Specify IC50 for COc1cc2c(Oc3ccc(NC(=O)C4(C(=O)Nc5ccc(F)cc5)CC4)cc3F)ccnc2cc1OCCCC(=O)NO , system UniProtKB Q9UM73.
**A:** > 0.63 µM

---

biological target: Histone deacetylase 4 (Homo sapiens); assay: Inhibition Assay: The inhibitions of activities of HDAC enzymes by the compounds N1'-[3-fluoro-4-[[7-[4-(hydroxyamino)-4-oxobutoxy]-6-methoxy-4-quinolyl]oxy]phenyl]-N1-(4-fluoro phenyl)cyclopropane-1,1-dicarboxamide prepared in Example 9 and N1'-[3-fluoro-4-[[7-[6-(hydroxyamino)-6-oxohexyloxy]-6-methoxy-4-quinolyl]oxy]phenyl]-N1-(4-fluo rophenyl)cyclopropane-1,1-dicarboxamide prepared in Example 13 were measured by Reaction Biology Corporation (Reaction Biology Corp., One Great Valley Parkway, Suite 2, Malvern, PA 19355, USA . http://www.reactionbiology.com/pages/hdac.htm). The HDAC enzymes tested include the following 11 HDAC isoforms: HDAC1, HDAC2, HDAC3, HDAC4, HDAC5, HDAC6, HDAC7, HDAC8, HDAC9, HDAC10 and HDAC11.Specific steps were as follows: The compound of the present invention was dissolved in dimethyl sulfoxide (DMSO) to make a stock solution of 10 mM. The stock solution was diluted in 4-fold series starting from 10 mM to prepare 10 different dosages.
Sequence (P56524 whole entry, canonical isoform): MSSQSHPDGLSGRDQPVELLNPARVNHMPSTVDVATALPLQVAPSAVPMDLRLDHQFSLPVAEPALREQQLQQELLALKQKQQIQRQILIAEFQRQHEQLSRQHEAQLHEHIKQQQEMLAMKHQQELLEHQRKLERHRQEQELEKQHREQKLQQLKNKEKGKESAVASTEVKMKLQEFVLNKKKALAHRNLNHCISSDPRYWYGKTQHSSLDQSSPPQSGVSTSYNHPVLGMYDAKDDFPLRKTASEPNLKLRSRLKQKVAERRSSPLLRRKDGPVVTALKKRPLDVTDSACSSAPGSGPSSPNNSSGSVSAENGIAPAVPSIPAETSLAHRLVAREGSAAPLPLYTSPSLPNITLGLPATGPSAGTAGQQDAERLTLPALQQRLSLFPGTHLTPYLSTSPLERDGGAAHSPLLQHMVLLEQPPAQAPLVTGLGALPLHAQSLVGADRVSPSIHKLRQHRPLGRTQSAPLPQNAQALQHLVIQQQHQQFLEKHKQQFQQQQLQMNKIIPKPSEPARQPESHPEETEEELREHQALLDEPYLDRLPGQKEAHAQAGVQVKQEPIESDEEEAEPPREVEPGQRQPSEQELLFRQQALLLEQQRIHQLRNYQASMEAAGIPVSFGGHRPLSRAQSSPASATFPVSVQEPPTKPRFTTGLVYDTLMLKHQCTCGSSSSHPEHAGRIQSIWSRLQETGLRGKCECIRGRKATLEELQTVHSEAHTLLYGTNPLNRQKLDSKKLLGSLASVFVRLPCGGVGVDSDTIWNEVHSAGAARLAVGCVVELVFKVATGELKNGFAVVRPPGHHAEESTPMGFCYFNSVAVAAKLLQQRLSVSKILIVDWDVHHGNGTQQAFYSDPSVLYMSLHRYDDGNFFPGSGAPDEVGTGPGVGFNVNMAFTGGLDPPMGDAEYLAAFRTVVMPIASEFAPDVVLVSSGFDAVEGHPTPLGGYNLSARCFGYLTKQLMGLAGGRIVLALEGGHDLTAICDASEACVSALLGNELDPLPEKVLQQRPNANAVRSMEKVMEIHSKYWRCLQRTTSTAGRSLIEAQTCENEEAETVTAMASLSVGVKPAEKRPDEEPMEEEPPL
OBSERVED PROPERTY: IC50

COc1cc2c(Oc3ccc(NC(=O)C4(C(=O)Nc5ccc(F)cc5)CC4)cc3F)ccnc2cc1OCCCCCC(=O)NO    > 10 µM

Please examine the following record next.
**Q:** Specify IC50 for COc1cc2c(Oc3ccc(NC(=O)C4(C(=O)Nc5ccc(F)cc5)CC4)cc3F)ccnc2cc1OCCCC(=O)NO , system Histone deacetylase 4 (Homo sapiens).
**A:** > 10 µM
